As shown below, each of these compounds has a reported inhibition at 10 µM value.
# TGT: human Edg-1(S1P1) (Homo sapiens, UniProt P21453)
# Construct: expressed in transfected cells; host or cells: HEK-293
# Sequence (P21453 whole entry): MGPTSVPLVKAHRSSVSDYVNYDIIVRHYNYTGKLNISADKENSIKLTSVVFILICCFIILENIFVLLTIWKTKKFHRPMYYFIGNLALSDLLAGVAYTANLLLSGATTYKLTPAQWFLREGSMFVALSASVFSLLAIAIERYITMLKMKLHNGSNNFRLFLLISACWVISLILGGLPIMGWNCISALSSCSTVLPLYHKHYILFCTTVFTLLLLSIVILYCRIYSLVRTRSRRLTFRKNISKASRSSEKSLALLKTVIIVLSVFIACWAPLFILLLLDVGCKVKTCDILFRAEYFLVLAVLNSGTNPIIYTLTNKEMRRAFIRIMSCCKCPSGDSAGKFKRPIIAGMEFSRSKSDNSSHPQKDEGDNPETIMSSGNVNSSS
# PROTOCOL: Cell system binding test: inhibition of [3H]-S1P binding to Edg-1(S1P1) gene transferred HEK-293 cells
# COND: 10 μM compound, [3H]-S1P 10 nM, read-out: Cell system binding test % inhibition (10 μM)
Write the number in % without appending the unit.

Would you please look over these solved cases?
SMILES NOTATION: CCn1c(OC)nnc1[C@@H](C)NS(=O)(=O)c1ccc(NC(=O)NC)c(Cl)c1
UNIT NAME: %
inhibition at 10 µM: 28.2
//
SMILES NOTATION: CCn1c(OC)nnc1[C@@H](C)NS(=O)(=O)c1ccc(Br)cc1
UNIT NAME: %
inhibition at 10 µM: 97.4
//
SMILES NOTATION: CCn1c(OCCOC)nnc1[C@@H](C)NS(=O)(=O)c1ccc(Cl)cc1
UNIT NAME: %
inhibition at 10 µM: 92.6

State its inhibition at 10 µM for this compound: CCn1c(OC)nnc1[C@@H](C)NS(=O)(=O)/C=C/c1ccccc1 102

State its inhibition at 10 µM for this compound: CCn1c(OC)nnc1[C@@H](C)NS(=O)(=O)c1ccc(C)o1 83.6

State its inhibition at 10 µM for this compound: CCn1c(OCCN(C)C)nnc1[C@@H](C)NS(=O)(=O)c1ccc(Cl)cc1 82.9

State its inhibition at 10 µM for this compound: CCn1c(OC)nnc1[C@@H](C)NS(=O)(=O)Cc1cccnc1 36.5

State its inhibition at 10 µM for this compound: CCn1c(OC)nnc1[C@@H](C)NS(=O)(=O)c1ccccc1C(F)(F)F 89.4

State its inhibition at 10 µM for this compound: CCn1c(OC)nnc1[C@@H](C)NS(=O)(=O)Cc1cc(Cl)cc(Cl)c1 96.7

State its inhibition at 10 µM for this compound: CCn1c(SCc2c(Cl)cccc2Cl)nnc1[C@@H](C)NS(=O)(=O)c1ccc(Cl)cc1 90.5

State its inhibition at 10 µM for this compound: C/C=C/CSc1nnc([C@@H](C)NS(=O)(=O)c2ccc(Cl)cc2)n1CC 82.2

State its inhibition at 10 µM for this compound: CCn1c(OC)nnc1[C@@H](C)NS(=O)(=O)c1ccc(Br)c(F)c1 97.2

----------
# TGT: human Edg-1(S1P1) (Homo sapiens)
# Construct: expressed in transfected cells; host or cells: HEK-293
# PROTOCOL: Cell system binding test: inhibition of [3H]-S1P binding to Edg-1(S1P1) gene transferred HEK-293 cells
# COND: 10 μM compound, [3H]-S1P 10 nM, read-out: Cell system binding test % inhibition (10 μM)
As shown below, each of these compounds has a reported inhibition at 10 µM value.
Write the number in % without appending the unit.

Would you please look over these solved cases?
COMPOUND: CCn1c(SCc2ccc(NC(C)=O)cc2)nnc1[C@@H](C)NS(=O)(=O)c1ccc(Cl)cc1
inhibition at 10 µM, %: 84.7
--
COMPOUND: CCCSc1nnc([C@@H](Cc2ccccc2)NS(=O)(=O)c2ccc(Cl)cc2)n1CC
inhibition at 10 µM, %: 91
--
COMPOUND: C=CCSc1nnc([C@@H](Cc2ccccc2)NS(=O)(=O)c2ccc(Cl)cc2)n1CC(C)C
inhibition at 10 µM, %: 75.2
--
COMPOUND: CCn1c(SCc2ccc(SC)cc2)nnc1[C@@H](C)NS(=O)(=O)c1ccc(Cl)cc1
inhibition at 10 µM, %: 90.3
--
COMPOUND: C=CCSc1nnc([C@@H](CC)NS(=O)(=O)c2ccc(Cl)cc2)n1CCC
inhibition at 10 µM, %: 84
--
COMPOUND: C=CCSc1nnc([C@@H](Cc2ccccc2)NS(=O)(=O)c2ccc(Cl)cc2)n1C(C)CC (stereo partly shown)
inhibition at 10 µM, %: 63.4
--
COMPOUND: CCn1c(OC)nnc1[C@@H](C)NS(=O)(=O)c1cc(C(=O)OC)c(C)o1
inhibition at 10 µM, %: 95.7
--
COMPOUND: CCn1c(SCC2CC2)nnc1[C@@H](C)NS(=O)(=O)c1ccc(Cl)cc1
inhibition at 10 µM, %: 85.6

State its inhibition at 10 µM for this compound: CCn1c(OC)nnc1[C@@H](C)NS(=O)(=O)c1cccc(F)c1 94.5

State its inhibition at 10 µM for this compound: CCn1c(SCc2ccccc2)nnc1[C@@H](C)NS(=O)(=O)c1ccc(Cl)cc1 97.2

State its inhibition at 10 µM for this compound: CCn1c(SCc2ccc(C(C)(C)C)cc2)nnc1C(C)NS(=O)(=O)c1ccc(Cl)cc1 (stereo not shown) 89.3

State its inhibition at 10 µM for this compound: CCn1c(SCCc2ccc(N(C)C)cc2)nnc1[C@@H](C)NS(=O)(=O)c1ccc(Cl)cc1 89.4

State its inhibition at 10 µM for this compound: CCn1c(OC)nnc1[C@@H](C)NS(=O)(=O)c1ccco1 40.2

State its inhibition at 10 µM for this compound: CCn1c(OC)nnc1[C@@H](C)NS(=O)(=O)c1cccs1 100

State its inhibition at 10 µM for this compound: C=CCSc1nnc([C@@H](C)NS(=O)(=O)c2ccc(Cl)cc2)n1CC 86.1

Attribution: patent US8022225B2
